- Test system: HOP-62 NSCLC
- protocol_description: NCI tumour cell line growth inhibition, 48 h
observation_type: TGI

Sample records with TGI:
molecule	observation_type	result
CC(=O)[CH-]C(=O)c1ccccc1.CC(=O)[CH-]C(=O)c1ccccc1.CC(=O)[CH-]C(=O)c1ccccc1.[Br-].[Zr+4]	TGI	> 100 µM
COc1ccc2c(c1)C(=O)c1c-2n(CCCCl)c(=O)c2cc(N)ccc12	TGI	> 100 µM
COC1(OC)C2C=CC1C([C@](C)(N)CO)C2 (stereo partly specified)	TGI	> 100 µM
C1=Cc2cccc3occ(c23)C=C1	TGI	> 100 µM
C=CCC1C(=O)CC2(C)C(CC=C)C(=O)CC12C (stereo unspecified)	TGI	> 100 µM

Using the record for C=C1C(C(=O)O)C1C(=O)O (stereo unspecified) , report its TGI.
> 100 µM

Using the record for Cc1cnc2[nH]c(-c3ccc(Cl)cc3)cc(=O)c2c1 , report its TGI.
> 100 µM

====

- System: NCI-H23 lung
- protocol_description: NCI tumour cell line growth inhibition, 48 h
observation_type: GI50

Sample records with GI50:
molecule	GI50
COc1cccc(-c2nn(-c3ccccc3)cc2-c2ccnc(NCCCNS(=O)(=O)c3ccc(C(F)(F)F)cc3)c2)c1	4.86 µM
CC(=O)c1ccc(Oc2c3ccccc3nc3occc23)cc1	18.9 µM

Using the record for CCC(C(=O)[C@@H](C)[C@@H](O)[C@H](C)[C@@H]1O[C@@H]([C@@H](CC)C(=O)ONC(=O)c2ccccc2)CC[C@@H]1C)[C@H]1O[C@]2(C=CC(=O)[C@]3(CC[C@@](C)([C@H]4CC[C@](O)(CC)[C@H](C)O4)O3)O2)[C@H](C)C[C@@H]1C (stereo partly drawn) , report its GI50.
0.175 µM

====

The compounds listed here are annotated with their GI50.
- Tested on: SK-MEL-5 melanoma
- protocol_description: NCI tumour cell line growth inhibition, 48 h

test_smiles	GI50
C/C=C(\C)C(=O)O[C@@H]1C=CC(=O)O[C@H]1CNC(=O)[C@H](C)O	19600 nM

Lookup: GI50 / SK-MEL-5 melanoma / COc1ccc2nc3ccccc3c(NCc3ccccc3)c2c1
1760 nM

====

- Tested on: OVCAR-4 ovarian
- protocol_description: NCI tumour cell line growth inhibition, 48 h
The compounds listed here are annotated with their GI50.

Using the record for CCCCNCCCCCNc1cc(OC)cc2cccnc12 , report its GI50.
26.2 µM

====

- Tested on: HT29 colon
- protocol_description: NCI tumour cell line growth inhibition, 48 h
The compounds listed here are annotated with their GI50.

Sample records with GI50:
compound	GI50
N/C(=N/S(=O)(=O)c1cc(C(=O)Nc2ccc(F)cc2)c(Cl)cc1SCc1ccccc1)Nc1ccccc1O	11 µM
OCC1OC(n2cnc3c(NCc4ccccc4O)ncnc32)C(O)C1O (stereo not given)	2.23 µM
C=CCN1C(=O)[C@]2(SC1=S)[C@H](c1cccc(Cl)c1)CN(C)[C@]21C(=O)NC2C=CC(Cl)=C[C@H]21 (stereo not given in full)	1.67 µM
C=C1C(O)C2CC(C)(C)C(=O)C2=C(CC(C)C)C12CC2 (stereo not given)	> 100 µM
COc1ccc(-c2nnc(Nc3nc(O)c(C4=c5cc(Br)ccc5=NC4=O)s3)o2)cc1	35.4 µM

Using the record for O=C(CC1Sc2ccccc2NC1=O)NNc1ccc(F)cc1 (stereo not given) , report its GI50.
> 100 µM

Using the record for COc1ccc2nc3ccccc3c(NCc3ccccc3)c2c1 , report its GI50.
1.8 µM

Using the record for Cc1nccn1CC1CCc2c(c3ccccc3n2C)C1=O (stereo not given) , report its GI50.
27.9 µM

Using the record for COc1cc(/C=C/c2ccnc3ccccc23)cc(OC)c1OC , report its GI50.
1.72 µM

Using the record for O=C(c1ccc(Nc2nccc(NCCCCNc3ccnc4cc(Cl)ccc34)n2)cc1)N1CCCCC1 , report its GI50.
1.31 µM
